assay: Cmax in human at 16 mg/m2 administered as 10 mins iv infusion; type: ADME, organism-based; parameters: route intravenous; conditions: in vivo
VALUE TYPE: Cmax
Quote the value and follow it with the unit of measurement.

Given Cc1c(-c2ccc(-c3ccccc3F)cc2)nc2ccc(F)cc2c1C(=O)O [BREQUINAR] , state its recorded Cmax.
2700 ng/mL

====

assay: Elimination half life in CD-1 mouse at 20 mg/kg, po; type: ADME, organism-based; conditions: in vivo, read-out: beta t1/2 (converted)
VALUE TYPE: half-life

Given Cc1c(-c2ccc(-c3cccnc3Cl)cc2)nc2ccc(F)cc2c1C(=O)O , state its recorded half-life.
2.78 h

====

VALUE TYPE: pIC50
Just the number, please; pIC50 means minus log10 of the concentration in mol/L.

Please provide the recorded pIC50 for Cc1c(-c2ccc(-c3ccccc3)cc2)nc2ccncc2c1C(=O)O , tested on Dihydroorotate dehydrogenase (quinone), mitochondrial (Homo sapiens, UniProt Q02127).
Sequence (Q02127 whole entry): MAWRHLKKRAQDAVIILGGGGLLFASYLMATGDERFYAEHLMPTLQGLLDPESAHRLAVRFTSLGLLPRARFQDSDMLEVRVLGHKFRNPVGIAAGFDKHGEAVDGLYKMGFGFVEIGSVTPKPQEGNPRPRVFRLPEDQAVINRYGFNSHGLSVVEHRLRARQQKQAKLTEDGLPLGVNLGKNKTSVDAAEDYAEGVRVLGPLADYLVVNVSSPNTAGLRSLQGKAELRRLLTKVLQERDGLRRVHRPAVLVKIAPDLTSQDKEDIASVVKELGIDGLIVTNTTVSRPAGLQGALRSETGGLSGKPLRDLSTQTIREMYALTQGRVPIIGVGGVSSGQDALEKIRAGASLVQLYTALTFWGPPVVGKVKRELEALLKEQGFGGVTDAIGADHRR
5.55

Please provide the recorded pIC50 for Cc1c(-c2ccc(-c3ccccc3)cc2)nc2ncccc2c1C(=O)O , tested on Dihydroorotate dehydrogenase (quinone), mitochondrial (Homo sapiens, UniProt Q02127).
5.91

Please provide the recorded pIC50 for Cc1ccc(-c2ccc(-c3nc4cnccc4c(C(=O)O)c3C)cc2)c(Cl)n1 , tested on Dihydroorotate dehydrogenase (quinone), mitochondrial (Homo sapiens, UniProt Q02127).
5.28

Please provide the recorded pIC50 for O=C(O)c1cc(-c2ccccc2)nc2ccccc12 [CINCHOPHEN] , tested on Dihydroorotate dehydrogenase (quinone), mitochondrial (Homo sapiens, UniProt Q02127).
3.84

Please provide the recorded pIC50 for Cc1c(-c2ccc(-c3cccnc3Cl)cc2)nc2cnc(C(F)(F)F)cc2c1C(=O)O , tested on Dihydroorotate dehydrogenase (quinone), mitochondrial (Homo sapiens, UniProt Q02127).
6.70

====

test system: MIA PaCa-2; assay: Antiproliferative activity against human MIAPaCa2 cells after 72 hrs by MTT assay; type: functional, cell-based
VALUE TYPE: IC50 (µM)
API: value field is a number in µM; no unit string.

Given CC(C)Cc1ccc(-c2cc(C(=O)O)c3ccccc3n2)cc1 , state its recorded IC50.
14.5

Given Cc1ccc(-c2ccc(-c3nc4ccc(F)cc4c(C(=O)O)c3C)cc2)c(Cl)n1 , state its recorded IC50.
6.57

Given Cc1c(-c2ccc(-c3cccnc3F)cc2)nc2ccccc2c1C(=O)O , state its recorded IC50.
13.4

Given COc1ccccc1-c1ccc(-c2cc(C(=O)O)c3ccccc3n2)cc1 , state its recorded IC50.
7.45

Given COC(=O)c1cc(-c2ccc(C3CCCCC3)cc2)nc2ccccc12 , state its recorded IC50.
37.1

Given O=C(O)c1cc(-c2ccc(-c3cnccc3C(F)(F)F)cc2)nc2ccccc12 , state its recorded IC50.
8.71

Given O=C(O)c1cc(-c2ccc(-c3cccnc3F)cc2)nc2ccccc12 , state its recorded IC50.
32.1

Given Cc1ccc(-c2ccc(-c3nc4ccccc4c(C(=O)O)c3C)cc2)c(Cl)n1 , state its recorded IC50.
7.7

====

assay: Cmax in CD-1 mouse at 20 mg/kg, po; assay type: ADME, organism-based; design: dose 20 mg/kg, route oral; conditions: in vivo
VALUE TYPE: Cmax (ng/mL)
API: value field is a number in ng/mL; no unit string.

Given Cc1c(-c2ccc(-c3cccnc3Cl)cc2)nc2ccc(F)cc2c1C(=O)O , state its recorded Cmax.
5310

====

assay: Elimination half life in human at 16 mg/m2 administered as 10 mins iv infusion; type: ADME, organism-based; settings: in vivo, read-out: beta t1/2 (converted)
VALUE TYPE: half-life (h)
API: value field is a number in h; no unit string.

Given Cc1c(-c2ccc(-c3ccccc3F)cc2)nc2ccc(F)cc2c1C(=O)O [BREQUINAR] , state its recorded half-life.
3.1

====

assay: Elimination half life in CD-1 mouse at 10 mg/kg, iv; type: ADME, organism-based; settings: in vivo, read-out: beta t1/2 (converted)
VALUE TYPE: half-life (min)
API: value field is a number in min; no unit string.

Given Cc1c(-c2ccc(-c3cccnc3Cl)cc2)nc2ccc(F)cc2c1C(=O)O , state its recorded half-life.
164

====

VALUE TYPE: pIC50
Just the number, please; pIC50 means minus log10 of the concentration in mol/L.

Please provide the recorded pIC50 for Cc1c(-c2ccc(-c3ccccc3)cc2)nc2cnc(C(F)(F)F)cc2c1C(=O)O , tested on Dihydroorotate dehydrogenase (quinone), mitochondrial (Homo sapiens, UniProt Q02127).
7.67

Please provide the recorded pIC50 for O=C(O)c1cc(-c2ccc(-c3cccnc3F)cc2)nc2ccccc12 , tested on Dihydroorotate dehydrogenase (quinone), mitochondrial (Homo sapiens, UniProt Q02127).
5.85

Please provide the recorded pIC50 for Cc1c(-c2ccc(-c3cccnc3Cl)cc2)nc2cnccc2c1C(=O)O , tested on Dihydroorotate dehydrogenase (quinone), mitochondrial (Homo sapiens, UniProt Q02127).
6.59

====

experiment: AUC (0 to last) in human at 16 mg/m2 administered as 10 mins iv infusion; assay type: ADME, organism-based; parameters: route intravenous, time 0 - last; details: in vivo
VALUE TYPE: AUC(0-t) at 10 min (ng·h/mL)
API: value field is a number in ng·h/mL; no unit string.

Given Cc1c(-c2ccc(-c3ccccc3F)cc2)nc2ccc(F)cc2c1C(=O)O , state its recorded AUC(0-t) at 10 min.
3800

====

experiment: Apparent clearance in CD-1 mouse at 20 mg/kg, po; assay type: ADME, organism-based; settings: in vivo
VALUE TYPE: CL/F (mL/min/kg)
API: value field is a number in mL/min/kg; no unit string.

Given Cc1c(-c2ccc(-c3cccnc3Cl)cc2)nc2ccc(F)cc2c1C(=O)O , state its recorded CL/F.
9.25

====

assay: Clearance in CD-1 mouse at 10 mg/kg, iv; type: ADME, organism-based; details: in vivo
VALUE TYPE: clearance (mL/min/kg)
API: value field is a number in mL/min/kg; no unit string.

Given Cc1c(-c2ccc(-c3cccnc3Cl)cc2)nc2ccc(F)cc2c1C(=O)O , state its recorded clearance.
5.15

====

test system: MIA PaCa-2; test: Antiproliferative activity against human MIAPaCa2 cells after 72 hrs by MTT assay; format: functional, cell-based
VALUE TYPE: IC50 (µM)
API: value field is a number in µM; no unit string.

Given Cc1ccc2nc(-c3ccc(-c4cccnc4Cl)cc3)c(C)c(C(=O)O)c2c1 , state its recorded IC50.
8.29

Given Cc1c(-c2ccc(-c3cccnc3Cl)cc2)nc2ccc(Cl)cc2c1C(=O)O , state its recorded IC50.
4.73

Given Cc1ccc(-c2ccc(-c3nc4ccccc4c(C(=O)O)c3C)cc2)c(F)n1 , state its recorded IC50.
31.6

Given Cc1c(-c2ccc(-c3ccccc3)cc2)nc2cnc(C(F)(F)F)cc2c1C(=O)O , state its recorded IC50.
2.18

Given O=C(O)c1cc(-c2ccc(-c3cccnc3C(F)(F)F)cc2)nc2ccccc12 , state its recorded IC50.
8.84

Given Cc1c(-c2ccc(-c3cccnc3F)cc2)nc2ccc(F)cc2c1C(=O)O , state its recorded IC50.
23.6

Given COC(=O)c1cc(-c2ccc(-c3ccccc3)cc2)nc2ccccc12 , state its recorded IC50.
11.5

Given O=C(O)c1cc(-c2ccc(C3CCCCC3)cc2)nc2ccccc12 , state its recorded IC50.
5.88

Given CC(C)c1ccc(-c2cc(C(=O)O)c3ccccc3n2)cc1 , state its recorded IC50.
24.2

====

system: MIA PaCa-2; assay: Antiproliferative activity against human MIAPaCa2 cells after 72 hrs by MTT assay; assay type: functional, cell-based
Can you tell me pIC50 for the items I'm about to list?
Just the number, please; pIC50 means minus log10 of the concentration in mol/L.

Given O=C(O)c1cc(-c2ccc(-c3ccccc3)cc2)nc2ccccc12 , state its recorded pIC50.
5.67

Given Cc1c(-c2ccc(-c3ccccc3)cc2)nc2ccncc2c1C(=O)O , state its recorded pIC50.
4.55

Given Cc1c(-c2ccc(-c3ccccc3F)cc2)nc2cnc(C(F)(F)F)cc2c1C(=O)O , state its recorded pIC50.
6.34

Given O=C(O)c1cc(-c2ccc(N3CCCCC3)cc2)nc2ccccc12 , state its recorded pIC50.
4.78

Given O=C(O)c1cc(-c2ccc(-c3ccncc3)cc2)nc2ccccc12 , state its recorded pIC50.
4.17

Given Cc1ccc(-c2ccc(-c3cc(C(=O)O)c4ccccc4n3)cc2)c(Cl)n1 , state its recorded pIC50.
4.85

Given Cc1c(-c2ccc(-c3ccccc3)cc2)nc2ccccc2c1C(=O)O , state its recorded pIC50.
5.28

Given Cc1c(-c2ccc(-c3cccnc3Cl)cc2)nc2ccc(F)cc2c1C(=O)O , state its recorded pIC50.
5.14

Given COC(=O)c1cc(-c2ccc(N3CCCCC3)cc2)nc2ccccc12 , state its recorded pIC50.
4.50

Given Cc1c(-c2ccc(-c3cccnc3F)cc2)nc2ccc(Cl)cc2c1C(=O)O , state its recorded pIC50.
4.83

Given O=C(O)c1cc(-c2ccc(-c3ccccn3)cc2)nc2ccccc12 , state its recorded pIC50.
4.31

Given Cc1c(-c2ccc(-c3ccccc3F)cc2)nc2ccc(F)cc2c1C(=O)O [BREQUINAR] , state its recorded pIC50.
5.77

Given Cc1c(-c2ccc(-c3ccccc3)cc2)nc2cnccc2c1C(=O)O , state its recorded pIC50.
5.35

Given Cc1ncccc1-c1ccc(-c2cc(C(=O)O)c3ccccc3n2)cc1 , state its recorded pIC50.
4.74
